System: HepG2
assay protocol: Cytotoxicity against human HepG2 cells assessed as decrease in cell viability after 72 hrs by MTT assay
Assay type: cell-based
condition context: HepG2, 72 h
pIC50: −log10 of the molar value.
property name: pIC50

>>> observed_value("CC(C)CCC[C@@H](C)[C@H]1CC[C@H]2[C@@H]3CC[C@H]4C[C@@H](OC(=O)Cc5ccc(OC/C=C/S(=O)(=O)c6ccccc6)cc5)CC[C@]4(C)[C@H]3CC[C@]12C")
"< 4.70"
>>> observed_value("CC1(C)[C@H]2CC=C(CCOC(=O)Cc3ccc(OC/C=C/S(=O)(=O)c4ccccc4)c(Cl)c3)[C@@H]1C2")
"< 4.10"
>>> observed_value("CC1(C)[C@H]2CC=C(CCOC(=O)Cc3ccc(OC/C=C/S(=O)(=O)c4ccccc4)cc3)[C@@H]1C2")
"< 4.10"
>>> observed_value("COc1cc([C@@H]2c3cc4c(cc3[C@H](O)[C@H]3COC(=O)[C@H]23)OCO4)cc(OC)c1OC [PODOFILOX]")
8.10
>>> observed_value("O=C(Cc1ccc(OC/C=C/S(=O)(=O)c2ccccc2)cc1)Oc1ccc(C2CCCC2)cc1")
"< 4.70"
>>> observed_value("O=C(N[C@H](/C=C/S(=O)(=O)c1ccccc1)CCc1ccccc1)c1cccc2cccnc12")
"< 4.10"
>>> observed_value("CN1CCC(NC(=O)Cc2ccc(OC/C=C/S(=O)(=O)c3ccccc3)cc2)CC1")
"< 4.70"
